Test system: 22Rv1 tumor-bearing mice
Assay: Biodistribution in 22Rv1 tumor-bearing mice
Conditions: 60 min p.i., 0.74 MBq, n = 3
REPORTED ENDPOINT: Uptake Blood, Mean (ID%/g)
# unit: ID%/g | format: bare number

Field Uptake Blood, Mean (entry O=C([O-])CN(CCN(CC(=O)[O-])Cc1cc(CCC(=O)NCCCCCC(=O)NCCCC[C@H](NC(=O)N[C@@H](CCC(=O)O)C(=O)O)C(=O)O)ccc1[O-])Cc1cc(CCC(=O)O)ccc1[O-].[68Ga+3].[OH3+] [[^68Ga]Ga-PSMA-11, reference compound] ) reads 0.22

Measured Uptake Blood, Mean of O=C([O-])CN1CCN(CC(=O)[O-])CCN(CC(=O)NCCCCCC(=O)NC(Cc2cnc3ccccc3c2)C(=O)NCCCCC(NC(=O)NC(CCC(=O)O)C(=O)O)C(=O)O)CCN(CC(=O)O)CC1.[68Ga+3] (centres unmarked) [[^68Ga]Ga-PSMA-Q-2] : 0.47

Uptake Blood, Mean for O=C([O-])CN1CCN(CC(=O)[O-])CCN(CC(=O)NCc2ccc(C(=O)NC(Cc3cnc4ccccc4c3)C(=O)NCCCCC(NC(=O)NC(CCC(=O)O)C(=O)O)C(=O)O)cc2)CCN(CC(=O)O)CC1.[68Ga+3] (centres unmarked) [[^68Ga]Ga-PSMA-Q-3] is 0.34

Entry under test: O=C([O-])CN1CCN(CC(=O)[O-])CCN(CC(=O)NCC2CCC(C(=O)NC(Cc3ccc4ccccc4c3)C(=O)NCCCCC(NC(=O)NC(CCC(=O)O)C(=O)O)C(=O)O)CC2)CCN(CC(=O)O)CC1.[68Ga+3] (centres unmarked) [[^68Ga]Ga-PSMA-617, reference compound] . Its Uptake Blood, Mean was 0.33

Quick note, Uptake Blood, Mean for O=C([O-])CN1CCN(CC(=O)[O-])CCN(CC(=O)NCC2CCC(C(=O)NC(Cc3cnc4ccccc4c3)C(=O)NCCCCC(NC(=O)NC(CCC(=O)O)C(=O)O)C(=O)O)CC2)CCN(CC(=O)O)CC1.[68Ga+3] (centres unmarked) [[^68Ga]Ga-PSMA-Q] landed at 0.31

----------
Exercise: state measured Log p pH = 7.4 for each of the compounds provided.
Test: Partition coefficient, octanol–water system
Format: physicochemical
Conditions: octanol–water (v/v = 1:1), n = 3
Give only the figure.

Short answer for O=C([O-])CN1CCN(CC(=O)[O-])CCN(CC(=O)NCC2CCC(C(=O)NC(Cc3ccncc3)C(=O)NCCCCC(NC(=O)NC(CCC(=O)O)C(=O)O)C(=O)O)CC2)CCN(CC(=O)O)CC1.[68Ga+3] (stereo not drawn) [[^68Ga]Ga-PSMA-4PY] : Log p pH = 7.4 was −3.49

// field: Log p pH = 7.4; key: O=C([O-])CN1CCN(CC(=O)[O-])CCN(CC(=O)NCC2CCC(C(=O)NC(Cc3ccc4ccccc4c3)C(=O)NCCCCC(NC(=O)NC(CCC(=O)O)C(=O)O)C(=O)O)CC2)CCN(CC(=O)O)CC1.[68Ga+3] (stereo not drawn) [[^68Ga]Ga-PSMA-617, reference compound] ; value = −2.54

Per the record, O=C([O-])CN1CCN(CC(=O)[O-])CCN(CC(=O)NCc2ccc(C(=O)NC(Cc3cnc4ccccc4c3)C(=O)NCCCCC(NC(=O)NC(CCC(=O)O)C(=O)O)C(=O)O)cc2)CCN(CC(=O)O)CC1.[68Ga+3] (stereo not drawn) [[^68Ga]Ga-PSMA-Q-3] has Log p pH = 7.4 of −2.99

----------
Test system: 22Rv1 tumor-bearing mice
Test: Biodistribution in 22Rv1 tumor-bearing mice
Details: 10 min p.i., 0.74 MBq, n = 3
REPORTED ENDPOINT: Uptake Muscle, Mean (ID%/g)
All answers are understood in ID%/g, so give the number only.

The molecule identified as O=C([O-])CN1CCN(CC(=O)[O-])CCN(CC(=O)NCC2CCC(C(=O)NC(Cc3cnc4ccccc4c3)C(=O)NCCCCC(NC(=O)NC(CCC(=O)O)C(=O)O)C(=O)O)CC2)CCN(CC(=O)O)CC1.[68Ga+3] (stereo not drawn) [[^68Ga]Ga-PSMA-Q] registered its Uptake Muscle, Mean at 0.70

Note to self: Uptake Muscle, Mean recorded for O=C([O-])CN(CCN(CC(=O)[O-])Cc1cc(CCC(=O)NCCCCCC(=O)NCCCC[C@H](NC(=O)N[C@@H](CCC(=O)O)C(=O)O)C(=O)O)ccc1[O-])Cc1cc(CCC(=O)O)ccc1[O-].[68Ga+3].[OH3+] [[^68Ga]Ga-PSMA-11, reference compound] was 0.81

// O=C([O-])CN1CCN(CC(=O)[O-])CCN(CC(=O)NCC2CCC(C(=O)NC(Cc3ccncc3)C(=O)NCCCCC(NC(=O)NC(CCC(=O)O)C(=O)O)C(=O)O)CC2)CCN(CC(=O)O)CC1.[68Ga+3] (stereo not drawn) [[^68Ga]Ga-PSMA-4PY] : Uptake Muscle, Mean value = 0.67

----------
System: 22Rv1 tumor-bearing mice
Experiment: Biodistribution in 22Rv1 tumor-bearing mice
Settings: 30 min p.i., 0.74 MBq, n = 3
I would appreciate it if you labelled entries condition met when Uptake Heart, Mean is 1 ID%/g or higher, otherwise condition not met.

q: Decide: is the reported value of Uptake Heart, Mean for O=C([O-])CN1CCN(CC(=O)[O-])CCN(CC(=O)NCc2ccc(C(=O)NC(Cc3cnc4ccccc4c3)C(=O)NCCCCC(NC(=O)NC(CCC(=O)O)C(=O)O)C(=O)O)cc2)CCN(CC(=O)O)CC1.[68Ga+3] (centres unmarked) [[^68Ga]Ga-PSMA-Q-3] equal to or greater than 1 ID%/g?
a: condition met

q: # bool: Uptake Heart, Mean of O=C([O-])CN1CCN(CC(=O)[O-])CCN(CC(=O)NCCCCCC(=O)NC(Cc2cnc3ccccc3c2)C(=O)NCCCCC(NC(=O)NC(CCC(=O)O)C(=O)O)C(=O)O)CCN(CC(=O)O)CC1.[68Ga+3] (centres unmarked) [[^68Ga]Ga-PSMA-Q-2] >= 1 ID%/g
a: condition met

q: Threshold query (Uptake Heart, Mean >= 1 ID%/g) on O=C([O-])CN1CCN(CC(=O)[O-])CCN(CC(=O)NCC2CCC(C(=O)NC(Cc3ccc4ccccc4c3)C(=O)NCCCCC(NC(=O)NC(CCC(=O)O)C(=O)O)C(=O)O)CC2)CCN(CC(=O)O)CC1.[68Ga+3] (centres unmarked) [[^68Ga]Ga-PSMA-617, reference compound]
a: condition met

q: Record O=C([O-])CN1CCN(CC(=O)[O-])CCN(CC(=O)NCC2CCC(C(=O)NC(Cc3ccncc3)C(=O)NCCCCC(NC(=O)NC(CCC(=O)O)C(=O)O)C(=O)O)CC2)CCN(CC(=O)O)CC1.[68Ga+3] (centres unmarked) [[^68Ga]Ga-PSMA-4PY] ; criterion: Uptake Heart, Mean no lower than 1 ID%/g. Met?
a: condition not met

----------
Tested on: 22Rv1 tumor-bearing mice
Test: Biodistribution in 22Rv1 tumor-bearing mice
Settings: 10 min p.i., 0.74 MBq, n = 3
REPORTED ENDPOINT: Uptake Bone, Mean (ID%/g)
State just the number; it will be interpreted in ID%/g.

get_value(item= O=C([O-])CN(CCN(CC(=O)[O-])Cc1cc(CCC(=O)NCCCCCC(=O)NCCCC[C@H](NC(=O)N[C@@H](CCC(=O)O)C(=O)O)C(=O)O)ccc1[O-])Cc1cc(CCC(=O)O)ccc1[O-].[68Ga+3].[OH3+] [[^68Ga]Ga-PSMA-11, reference compound] , readout=Uptake Bone, Mean) returns 0.72

Kindly note the recorded Uptake Bone, Mean for O=C([O-])CN1CCN(CC(=O)[O-])CCN(CC(=O)NCCCCCC(=O)NC(Cc2cnc3ccccc3c2)C(=O)NCCCCC(NC(=O)NC(CCC(=O)O)C(=O)O)C(=O)O)CCN(CC(=O)O)CC1.[68Ga+3] (stereo not shown) [[^68Ga]Ga-PSMA-Q-2] , which is 1.12

Lab book: Uptake Bone, Mean of O=C([O-])CN1CCN(CC(=O)[O-])CCN(CC(=O)NCc2ccc(C(=O)NC(Cc3cnc4ccccc4c3)C(=O)NCCCCC(NC(=O)NC(CCC(=O)O)C(=O)O)C(=O)O)cc2)CCN(CC(=O)O)CC1.[68Ga+3] (stereo not shown) [[^68Ga]Ga-PSMA-Q-3] noted as 0.67

Record O=C([O-])CN1CCN(CC(=O)[O-])CCN(CC(=O)NCCCCC(=O)NC(Cc2cnc3ccccc3c2)C(=O)NCCCCC(NC(=O)NC(CCC(=O)O)C(=O)O)C(=O)O)CCN(CC(=O)O)CC1.[68Ga+3] (stereo not shown) [[^68Ga]Ga-PSMA-Q-1] . Reported Uptake Bone, Mean: 0.72

----------
Tested on: 22Rv1 tumor-bearing mice
Assay: Biodistribution in 22Rv1 tumor-bearing mice
Conditions: 30 min p.i., 0.74 MBq, n = 3
What Uptake Kidney, Mean was measured for each of the following?
Give the value, in units of ID%/g, as a plain number.

Form field Uptake Kidney, Mean, entry O=C([O-])CN1CCN(CC(=O)[O-])CCN(CC(=O)NCC2CCC(C(=O)NC(Cc3cnc4ccccc4c3)C(=O)NCCCCC(NC(=O)NC(CCC(=O)O)C(=O)O)C(=O)O)CC2)CCN(CC(=O)O)CC1.[68Ga+3] (centres unmarked) [[^68Ga]Ga-PSMA-Q] : 5.91

Looking up O=C([O-])CN1CCN(CC(=O)[O-])CCN(CC(=O)NCCCCC(=O)NC(Cc2cnc3ccccc3c2)C(=O)NCCCCC(NC(=O)NC(CCC(=O)O)C(=O)O)C(=O)O)CCN(CC(=O)O)CC1.[68Ga+3] (centres unmarked) [[^68Ga]Ga-PSMA-Q-1] , I found its Uptake Kidney, Mean recorded as 18.86

Just so you know, measured Uptake Kidney, Mean for O=C([O-])CN(CCN(CC(=O)[O-])Cc1cc(CCC(=O)NCCCCCC(=O)NCCCC[C@H](NC(=O)N[C@@H](CCC(=O)O)C(=O)O)C(=O)O)ccc1[O-])Cc1cc(CCC(=O)O)ccc1[O-].[68Ga+3].[OH3+] [[^68Ga]Ga-PSMA-11, reference compound] came out at 2.76

The compound identified as O=C([O-])CN1CCN(CC(=O)[O-])CCN(CC(=O)NCC2CCC(C(=O)NC(Cc3ccncc3)C(=O)NCCCCC(NC(=O)NC(CCC(=O)O)C(=O)O)C(=O)O)CC2)CCN(CC(=O)O)CC1.[68Ga+3] (centres unmarked) [[^68Ga]Ga-PSMA-4PY] registered its Uptake Kidney, Mean at 2.08

O=C([O-])CN1CCN(CC(=O)[O-])CCN(CC(=O)NCC2CCC(C(=O)NC(Cc3ccc4ccccc4c3)C(=O)NCCCCC(NC(=O)NC(CCC(=O)O)C(=O)O)C(=O)O)CC2)CCN(CC(=O)O)CC1.[68Ga+3] (centres unmarked) [[^68Ga]Ga-PSMA-617, reference compound] yielded Uptake Kidney, Mean of 25.77

Data provenance is paper PMC9414910.
